# target entity: Phosphatidylinositol 4,5-bisphosphate 3-kinase catalytic subunit alpha isoform (Homo sapiens)
# Sequence (P42336 whole entry, canonical isoform): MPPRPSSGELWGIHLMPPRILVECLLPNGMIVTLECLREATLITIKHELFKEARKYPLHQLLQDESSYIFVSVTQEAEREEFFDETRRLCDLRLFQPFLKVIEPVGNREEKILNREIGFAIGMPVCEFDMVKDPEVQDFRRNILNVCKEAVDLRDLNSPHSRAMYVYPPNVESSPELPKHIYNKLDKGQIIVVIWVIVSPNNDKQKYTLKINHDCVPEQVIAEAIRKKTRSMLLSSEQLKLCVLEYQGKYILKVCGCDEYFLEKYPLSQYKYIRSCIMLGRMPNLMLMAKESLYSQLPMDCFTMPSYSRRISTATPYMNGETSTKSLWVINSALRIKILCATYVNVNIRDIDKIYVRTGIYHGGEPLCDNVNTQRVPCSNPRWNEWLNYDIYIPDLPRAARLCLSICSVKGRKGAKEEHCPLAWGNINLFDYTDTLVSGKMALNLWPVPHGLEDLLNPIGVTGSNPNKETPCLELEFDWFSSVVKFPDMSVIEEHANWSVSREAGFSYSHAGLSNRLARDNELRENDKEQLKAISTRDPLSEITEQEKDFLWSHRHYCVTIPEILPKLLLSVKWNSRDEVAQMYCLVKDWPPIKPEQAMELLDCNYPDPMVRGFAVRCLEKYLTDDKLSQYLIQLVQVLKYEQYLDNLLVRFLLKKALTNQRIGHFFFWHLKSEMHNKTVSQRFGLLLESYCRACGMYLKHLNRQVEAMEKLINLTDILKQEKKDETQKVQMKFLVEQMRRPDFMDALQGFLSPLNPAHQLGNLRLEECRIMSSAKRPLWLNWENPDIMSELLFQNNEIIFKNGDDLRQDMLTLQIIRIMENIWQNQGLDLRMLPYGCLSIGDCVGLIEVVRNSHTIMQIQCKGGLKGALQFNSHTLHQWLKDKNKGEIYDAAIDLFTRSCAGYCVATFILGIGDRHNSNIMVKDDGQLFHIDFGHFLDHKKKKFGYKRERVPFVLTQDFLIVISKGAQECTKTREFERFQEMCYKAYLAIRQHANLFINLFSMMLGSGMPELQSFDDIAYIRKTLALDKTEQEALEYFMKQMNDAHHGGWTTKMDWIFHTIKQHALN
# assay comment: Inhibition of PI3Kalpha-mediated AKT phosphorylation at S473 by cell based assay
property measured: IC50 (nM)
Report only the number, with the unit nM understood.

Examples with their reported IC50 follow.
N#Cc1ccc(-c2c(-c3nnc[nH]3)sc(N3CCOCC3)c2C#N)c(F)c1	79
N#Cc1c(N2CCOCC2)sc(-c2nc[nH]n2)c1-c1ccc(Cl)cc1	73
N#Cc1c(N2CCOCC2)sc(C(N)=O)c1-c1ccc(Cl)cc1	760

// moving on: another record for IC50
`N#Cc1c(N2CCOCC2)sc(-c2nnc[nH]2)c1-c1ccc(Cl)cc1Cl` has a reported IC50 of 35
